Hello, the source for this data is patent US20250100993A1, in case you need it.

compounds and their reported HSD17B14 fold selectivity
- Study target: HSD17B14 (Homo sapiens (Human))
- Sequence (Q9BPX1 whole entry): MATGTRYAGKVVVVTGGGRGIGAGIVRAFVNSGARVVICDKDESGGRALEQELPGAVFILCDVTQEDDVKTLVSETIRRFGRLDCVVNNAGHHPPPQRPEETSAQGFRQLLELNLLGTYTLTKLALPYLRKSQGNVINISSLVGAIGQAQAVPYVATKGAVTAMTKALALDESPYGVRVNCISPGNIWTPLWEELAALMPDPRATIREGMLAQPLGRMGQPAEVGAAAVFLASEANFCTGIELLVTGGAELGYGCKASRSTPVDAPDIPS
- Assay remarks: LC/MS estrone detection assay for HSD17B14 activity (estradiol to estrone)
- Type: biochemical
- Protocol conditions: selectivity for HSD17B13 over HSD17B14

// worked examples, HSD17B14 fold selectivity included
1. N#Cc1cccc(-c2nc(C(=O)NCc3ccccc3C(F)(F)F)c(NC(=O)c3cc(Cl)c(O)c(Cl)c3)s2)c1 = >1640 fold
2. CS(=O)(=O)c1ccc(-c2nc(C(=O)NCc3ccccc3C(F)(F)F)c(NC(=O)c3cc(Cl)c(O)c(Cl)c3)s2)cc1 = 357 fold
3. CC(NC(=O)c1nc(-c2cccnc2)sc1NC(=O)c1cc(Cl)c(O)c(Cl)n1)c1ccccc1C(F)(F)F (stereo not shown) = >1850 fold

Which HSD17B14 fold selectivity is listed for `CS(=O)(=O)c1ccc(-c2nc(C(=O)NCc3ccccc3C(F)(F)F)c(NC(=O)c3cc(Cl)c(O)c(Cl)n3)s2)cc1` ?
>646 fold
